Entries annotated with measured Lactate, ratio versus control
- assay-summary: Plasma metabolite profiling (GC-MS, LC-MS, SPE-LC-MS) of rats dosed once daily over 28 days; treatment ratios versus untreated control
- Type: in vivo, rat
- measurement-parameters: plasma, female rats, day 28, high dose, Table 6b
Structures can show the parent of a compound that is named as a salt. Marks after values point to notes of the source that are not given here.

Prompt: I would be grateful if you could share the reported Lactate, ratio versus control for C#CCN(C)[C@H](C)Cc1ccccc1 [Selegiline hydrochloride] .
Response: 0.72*

Prompt: I would be grateful if you could share the reported Lactate, ratio versus control for CC(C)C[C@H]1C(=O)N2CCC[C@H]2[C@]2(O)O[C@](NC(=O)[C@@H]3C=C4c5cccc6[nH]c(Br)c(c56)C[C@H]4N(C)C3)(C(C)C)C(=O)N12 [Bromocriptine Mesylate] .
Response: 0.47*

Prompt: I would be grateful if you could share the reported Lactate, ratio versus control for C=CCN1C[C@H](C(=O)N(CCCN(C)C)C(=O)NCC)C[C@@H]2c3cccc4[nH]cc(c34)C[C@H]21 .
Response: 0.7*
